PROTOCOL SUMMARY: Parallel artificial membrane permeability assay (PAMPA-BBB)
MEASUREMENT CONDITIONS: PAMPA, pH 7.4
RECORDED METRIC: Papp at 4 h, 100 μM (×10⁻⁶ cm/s)
Lab book: enter the figure in ×10⁻⁶ cm/s, no units written.

Please give the measured Papp at 4 h, 100 μM for this compound: CCN(C)C(=O)Oc1cccc(CN2CCC(CCC(=O)c3cc(Cl)c(N)cc3OC)CC2)c1.O=C(O)/C=C/C(=O)O [Compound 20]
40.7

====

The following compounds have recorded Ki on human 5-HT4R (Homo sapiens).
Sequence (Q13639 whole entry): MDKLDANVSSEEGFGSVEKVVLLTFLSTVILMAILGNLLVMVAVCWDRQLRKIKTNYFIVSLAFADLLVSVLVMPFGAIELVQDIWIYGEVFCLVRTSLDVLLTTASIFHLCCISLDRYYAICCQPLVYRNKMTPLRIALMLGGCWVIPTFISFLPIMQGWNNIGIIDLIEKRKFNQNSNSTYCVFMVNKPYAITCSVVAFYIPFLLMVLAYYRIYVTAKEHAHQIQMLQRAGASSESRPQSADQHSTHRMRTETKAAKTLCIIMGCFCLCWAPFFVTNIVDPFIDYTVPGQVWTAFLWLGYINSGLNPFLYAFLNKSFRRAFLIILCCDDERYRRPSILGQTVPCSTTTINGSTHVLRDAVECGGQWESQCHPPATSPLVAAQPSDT

Here are 3 compounds together with their reported answers.
COc1cc(N)c(Cl)cc1C(=O)CCC1CCN(Cc2cccc(O)c2)CC1.O=C(O)/C=C/C(=O)O : 6.9 nM
COc1cc(N)c(Cl)cc1C(=O)CCC1CCN(Cc2cccc(O)c2)CC1 : 5.1 nM
COc1cc(N)c(Cl)cc1C(=O)NCC1CCN(Cc2cccc(O)c2)CC1 : 5.8 nM

Next item in the queue.
So what's the measured Ki for this one? `COc1cc(N)c(Cl)cc1C(=O)OCC1CCN(Cc2cccc(O)c2)CC1`
0.6 nM

====

SYSTEM TESTED: AChE (Homo sapiens)
Sequence (P22303 32-617 isoform P22303-2 limits assumed): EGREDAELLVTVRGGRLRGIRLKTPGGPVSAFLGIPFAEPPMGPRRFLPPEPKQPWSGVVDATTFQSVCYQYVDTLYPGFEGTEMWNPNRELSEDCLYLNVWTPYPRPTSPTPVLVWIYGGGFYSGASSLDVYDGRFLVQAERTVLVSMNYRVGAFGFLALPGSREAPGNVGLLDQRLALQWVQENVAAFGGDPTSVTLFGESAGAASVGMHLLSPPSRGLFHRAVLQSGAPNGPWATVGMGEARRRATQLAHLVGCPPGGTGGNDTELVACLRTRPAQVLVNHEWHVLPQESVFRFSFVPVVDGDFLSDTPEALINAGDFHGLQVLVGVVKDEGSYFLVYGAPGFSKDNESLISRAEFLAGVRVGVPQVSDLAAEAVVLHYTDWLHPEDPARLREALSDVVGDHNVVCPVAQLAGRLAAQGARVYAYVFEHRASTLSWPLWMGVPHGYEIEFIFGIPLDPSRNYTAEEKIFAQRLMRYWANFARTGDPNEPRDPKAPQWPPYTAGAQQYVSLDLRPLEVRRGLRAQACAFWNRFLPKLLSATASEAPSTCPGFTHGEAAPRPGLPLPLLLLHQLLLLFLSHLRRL
PROTOCOL SUMMARY: AChE inhibition, Ellman assay
Assay type: biochemical
Set-up: AChE from human erythrocytes; purchased Sigma Aldrich; host or cells: human erythrocytes (natural source)
MEASUREMENT CONDITIONS: AChE IC50, value in text
Protocol: All the synthesized phenolic derivatives and their carbamates were evaluated as potential inhibitors of human AChE, using the Ellman assay, as well as potential ligands for human 5-HT4R using a radioligand displacement assay. The inhibitory capacity of compounds on AChE biological activity was evaluated through the use of the spectrometric method of Ellman. Acetylthiocholine iodide and 5,5-dithiobis-(2-nitrobenzoic) acid (DTNB) were purchased from Sigma Aldrich. […]
RECORDED METRIC: IC50 (µM)
I only need the number, in µM, no unit after it.

For the compound `CCN(C)C(=O)Oc1cccc(CN2CCC(CCC(=O)c3cc(Cl)c(N)cc3OC)CC2)c1` , what IC50 is on record?
4.15

====

SYSTEM TESTED: (h)5-HT4(a) receptors (Homo sapiens, UniProt Q13639)
Construct: HA
Sequence (Q13639 1-387 isoform Q13639-2): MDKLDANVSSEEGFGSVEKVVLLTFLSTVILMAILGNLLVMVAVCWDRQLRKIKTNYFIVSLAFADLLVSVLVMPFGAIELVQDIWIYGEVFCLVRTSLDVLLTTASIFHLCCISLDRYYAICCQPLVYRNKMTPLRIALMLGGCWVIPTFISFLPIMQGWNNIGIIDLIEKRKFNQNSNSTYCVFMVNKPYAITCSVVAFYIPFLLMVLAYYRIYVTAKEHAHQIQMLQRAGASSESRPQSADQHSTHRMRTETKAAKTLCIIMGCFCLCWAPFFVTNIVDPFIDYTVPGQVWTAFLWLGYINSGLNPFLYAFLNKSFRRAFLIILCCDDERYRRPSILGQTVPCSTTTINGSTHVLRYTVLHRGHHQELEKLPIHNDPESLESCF
PROTOCOL SUMMARY: cAMP production in COS-7 cells transfected with 5-HT4R
MEASUREMENT CONDITIONS: given as Log(EC50), negative values; mean ± SEM
RECORDED METRIC: pEC50
In simple prose, pEC50 is minus the logarithm base ten of a concentration in moles per litre.

So what pEC50 did `COc1cc(N)c(Cl)cc1C(=O)CCC1CCN(Cc2cccc(O)c2)CC1.O=C(O)/C=C/C(=O)O` get with (h)5-HT4(a) receptors (Homo sapiens, UniProt Q13639)?
9.90

====

SYSTEM TESTED: UniProt P22303
PROTOCOL SUMMARY: AChE inhibition, Ellman assay
Format: biochemical
Design: AChE from human erythrocytes; purchased Sigma Aldrich; host or cells: human erythrocytes (natural source)
MEASUREMENT CONDITIONS: (h)AChE IC50, Ellman assay; mean ± SEM of at least two experiments
pIC50: −log10 of the molar value.
Use true when the recorded pIC50 is no lower than 5; use false when it is lower.

Worked cases, answers included:
CCN(C)C(=O)Oc1cccc(CN2CCC(COC(=O)c3cc(Cl)c(N)cc3OC)CC2)c1 : false
COc1cc(N)c(Cl)cc1C(=O)CCC1CCN(Cc2cccc(O)c2)CC1.O=C(O)/C=C/C(=O)O : true
CCN(C)C(=O)Oc1cccc(CN2CCC(CCC(=O)c3cc(Cl)c(N)cc3OC)CC2)c1 : true

--- query ---
pIC50 >= 5 for `CCN(C)C(=O)Oc1cccc(CN2CCC(CCC(=O)c3cc(Cl)c(N)cc3OC)CC2)c1.O=C(O)/C=C/C(=O)O` ?
true
